assay procedure: soluble on expression in E. coli; label from the status in PepcDB or PDB records
test readout: soluble on expression in E. coli

Worked set:
sequence string: MSLDLRKSKELTGIEAHINDNKKEESNVEYFEKLRSALLDGVNKGRSLLKHLPVTRIEGQSFRVDIIKFEDGVRVVKQEYKPIPLLKKKFYVGIRELNDGTYDVSIATKAGELLVKDEESLVIREILSTEGIKKMKLSSWDNPEEALNDLMNALQEASNASAGPFGLIINPKRYAKLLKIYEKSGKMLVEVLKEIFRGGIIVTLNIDENKVIIFANTPAVLDVVVGQDVTLQELGPEGDDVAFLVSEAIGIRIKNPEAIVVLEEGHHHHHH
endpoint result: soluble

sequence string: MEQMRFKPRPFVKPVKFKCKFCLDCCKGRHVYLTLNDIKRLIDAGYDPQDFLTISIEDGKIRFVLSVREWDLGCVFQDPETGLCKVHPHRPLICRIYPFMVSKKPLGIKGEKKFEINGKSFWLYYDENCPGINDEDGDTITPEEILKLGIKFEEELEATDLDGFLKILRSLEHHHHHH
endpoint result: soluble

sequence string: MEQKKKKNIGFNIIKDDPTDGHRGFGAGALSLENVSPVIIDVEAGEAFVDMGAMHARSAVERGIKFLPDRSAVPNGKPYWIVWVTIERREDGPYYAGVTACEMTIDREARRGYKLLPEHVNRLDKSLKRHIIVDHMDAKSKRVLADFLKGHDIGMWNRSSDELKKGLEGEL
endpoint result: not soluble

sequence string: MGSDKIHHHHHHMGLLAGVEISDVPLKKIVTVCLAVLVAGCAGPQTQELLGSAIVAAPVTEIAGNHSIFIATTRKKSDDPNKVFDGERSATLNYARVNVTVPGLHQTGQIERRSRGKSDDPAKYFMASEVVGYDTQPKFSSALNADIAARGGRVMVFVHGYNTGFDDAVYRLTQIVHDSGYPGTPVLFSWASGAKTTDYVYDKESASAARDQLEVTLRMLQQSGARRIDIVAHSMGTWVTMETLRQMAISGDRDLGGKLGDVVLASPDIDVDVFKSQMRRYGKPDKPFILLLSDDDRALRLSGLIAGSRPRVGDYKDAADLASYGVTVVDLSEVKGSDSFNHTKFADNPVLVKMIGQRLREDDGFASDRDVTDRISLLGQ
endpoint result: not soluble

sequence string: MGSDKIHHHHHHMLSAKIEVYDSRFYQLVGTEARLEELFDKAIWAEGPVWLEKQQAVIFSDVKGNTMYRWTAEQGTQIFRQPSQFANGNAVDAAGNLITCEHGRRAISLTDHAGNIRVLVNKLEGKRLNSPNDVVVKSDGTIWFTDPPYGILSDAEGKKSPSEIIGCYVYCYDPITDDIHIATFNVMRPNGLAFCENETKLVVADMSVVEFKRTGLHHLVVFDVIDNQLYNRTSIAAISPGIPDGFCIDHNNVIYCSCETGLLVLLLDGTFLGRILLDKTASNCTFGLDQKTLFITATNSLYCLTFK
endpoint result: not soluble

sequence string: SLPSINALLQAEVLSRQITSPVSGINGDIRAKKIASIADVCESMKEQLLVLVEWAKYIPAFCELPLDDQVALLRAHAGEHLLLGATKRSMVFKDVLLLGNDYIVPRHCPELAEMSRVSIRILDELVLPFQELQIDDNEYAYLKAIIFFDPDAKGLSDPGKIKRLRSQVQVSLEDYINDRQYDSRGRFGELLLLLPTLQSITWQMIEQIQFIKLFGMAKIDNLLQEMLLGG
endpoint result: soluble

**Q:** // returns reported soluble on expression in E. coli for input `MKILYIVLDGAADSPTSPRKTLEEASKPNIDSLGSHAVCGMVYTVKPGVAPQSDYATLSLLGYNPDEYYPGRGPLEAFGAGIEMRRGDIALRANFATVDPGTLRIIDRRVGRSLTSREARELASAVDGMELEDGEGTALFRATIGHRGVLVLRHRSKPLSDAISNTDPAYERRGRFSVALEKYEPFIKLSNPLVEDEAAVLAARMLNEFTLKAVEILDSHPVNLAREKRGLLKANAILSRDAGGLPEEKPPSFQERFGLRGASIVEMVVERGISRYIGLDDIRVEIEGRAREEVYREEAARAVEALETHDLVYVHLKGPDEPGHDGSFEGKIRAVEDIDKHFFAPLLDRLSSAGLEPAFVVTSDHATPWDVGAHSGDPVPLMISHQSIQ`
**A:** not soluble

**Q:** // returns reported soluble on expression in E. coli for input `MGSDKIHHHHHHSGEKKESASEKGVETVLPDTKNEVSVMTLKKQIFNHELVSNGKISARGMADLRFESGEVIAHIWVKNGDRVRKGQKLAELDKFKLDNQLSQSEDALKKSELELRDVLISQGYPADDISQVPEETMKLAKVKSGYDQSKSQYEMSKYNAEHATLTAPFDGVVANLFSKPYNLASTSDVFCTVIDMQGMEVDFTVLESELPLIKNGDKVVIKPYSDAATVHEGSISEINPLVDDKGMVKVKARVNGAGKLFSGMNVRVSVHRSLGEQLVIPKSAVVLRSGKQVVFTLKDGKMAQWNYIHTALENADSYSVADGLTEGDTVIVSGNINLAHEAPVTIIE`
**A:** not soluble

**Q:** // returns reported soluble on expression in E. coli for input `MAHHHHHHMIVLLRKNNLKNTLRLFPLGCNNKLVFMRGYINEQTKGPIEKKTTDNNEKMLLNKTLEDVKVSKENSCNALFDECLEELYRMKKKVDKESVEYDNSPIIEELNREELKITRNIFERINKKKKHVSNLSYKDIYIDPYWNPFKDVDNLKQEILYEFNEYSKMASIVELKKQRRAIKKSLKEQYKLYNPYSEEYNKHFNLNMDNDVKEQQMECHDKDEKYWNPSFNKRKILNIKSPFIWRYTHLLHHFIGENGLILPRKINMTTRKQQIQIFKSICIARRMALYPYDKKPEKDDLIPLMDPLQFLLDELIHRYIQLNDLRAQAIIKVMINRYPSLNYYKYFFYESKKEKDKNEKTAQNEQEENVSEKKEPFSQMLQKYKKNYYENFYKY`
**A:** not soluble

**Q:** // returns reported soluble on expression in E. coli for input `MEKRITTPLTDEVVKSLRAGDKVLITGYIYTARDAAHKRMVEAIQRGEKPPIDLKGQIIYYVGPTPPKPGQVIGSAGPTTAIRMDKYVEPLLKLGLKGMIGKGYRSPQVKELLKKYKAVYFAAVGGVATLLQKHIKSSELIAYEDLGTEAIRRLYVEDFPVIVANDAFGGDVFEEGRKKYAKIDV`
**A:** soluble
